# target_desc: human vasopressin V1b receptor (Homo sapiens)
pKi: −log10 of the molar value.
Known pKi of a selection of compounds

Below: 5 compounds and their reported pKi.
compound	property	value
CCOc1nc(Cl)ccc1C1(N2CCCN(c3ccnc(C)c3)CC2)C(=O)N(S(=O)(=O)c2ccc(OC)cn2)c2ccc(C#N)cc21 (racemic)	pKi	> 8.00
CCOc1ccc(OC)cc1C1(N2CCN(c3ccnc(C)c3)CC2)C(=O)N(S(=O)(=O)c2ccc(OC)c3cccnc23)c2ccc(C#N)cc21 (racemic)	pKi	> 8.00
CCOc1ccc(OC)cc1C1(N2CCN(c3ccnc(C4CC4)c3)CC2)C(=O)N(S(=O)(=O)c2cccc3cccnc23)c2ccc(C#N)cc21 (racemic)	pKi	> 8.00
CCOc1ccccc1C1(N2CCN(c3ccncc3)CC2)C(=O)N(S(=O)(=O)c2ccc(C)c3cccnc23)c2ccc(C#N)cc21 (racemic)	pKi	7.30 to 8.00
CCOc1cc(F)ccc1C1(N2CCN(c3ccncc3)CC2)C(=O)N(S(=O)(=O)c2ccc(C)cn2)c2ccc(C#N)cc21 (racemic)	pKi	7.30 to 8.00

We next turn to a different compound, shown below.
Q: Return the recorded pKi value; entry: CCOc1ccc(OC)cc1C1(N2CCN(c3ccnc(C)c3)CC2)C(=O)N(S(=O)(=O)c2ccc(OC)cn2)c2ccc(C#N)cc21 (single isomer, unassigned; (+)) [Example 164]
A: > 8.00

----------
// values below are Ki; system is human vasopressin V1b receptor (Homo sapiens, UniProt P47901)

Below: 2 molecules and their reported Ki.
molecule	property	value
CCOc1ccccc1C1(N2CCN(c3ccncc3)CC2)C(=O)N(S(=O)(=O)c2ccccn2)c2ccc(C#N)cc21 (racemic)	Ki	10 to 50 nM
CCOc1ccccc1C1(N2CCN(C3CCN(C)CC3)CC2)C(=O)N(S(=O)(=O)c2ccc(OC)cn2)c2ccc(C#N)cc21 (racemic)	Ki	10 to 50 nM

Q: Give Ki for this entry on human vasopressin V1b receptor (Homo sapiens, UniProt P47901): CCOc1ccccc1C1(N2CCN(c3ccnc(C(C)C)c3)CC2)C(=O)N(S(=O)(=O)c2ccc(OC)cn2)c2ccc(C#N)cc21 (racemic)
A: 10 to 50 nM

Q: Give Ki for this entry on human vasopressin V1b receptor (Homo sapiens, UniProt P47901): COc1ccccc1C1(N2CCN(c3ccncc3)CC2)C(=O)N(S(=O)(=O)c2cccc3cccnc23)c2ccc(Cl)cc21 (racemic)
A: < 10 nM

Q: Give Ki for this entry on human vasopressin V1b receptor (Homo sapiens, UniProt P47901): CCOc1nc(Cl)ccc1C1(N2CCCN(c3ccncc3)CC2)C(=O)N(S(=O)(=O)c2ccc(OC)cn2)c2ccc(C#N)cc21 (racemic)
A: 10 to 50 nM

Q: Give Ki for this entry on human vasopressin V1b receptor (Homo sapiens, UniProt P47901): CCOc1ccc(OC)cc1C1(N2CCN(C3CCN(C)CC3)CC2)C(=O)N(S(=O)(=O)c2ccc(OC)cn2)c2ccc(C#N)cc21 (single isomer, unassigned; (+))
A: 10 to 50 nM

----------
# target_desc: human vasopressin V1b receptor (Homo sapiens)
# Sequence (P47901 1-424): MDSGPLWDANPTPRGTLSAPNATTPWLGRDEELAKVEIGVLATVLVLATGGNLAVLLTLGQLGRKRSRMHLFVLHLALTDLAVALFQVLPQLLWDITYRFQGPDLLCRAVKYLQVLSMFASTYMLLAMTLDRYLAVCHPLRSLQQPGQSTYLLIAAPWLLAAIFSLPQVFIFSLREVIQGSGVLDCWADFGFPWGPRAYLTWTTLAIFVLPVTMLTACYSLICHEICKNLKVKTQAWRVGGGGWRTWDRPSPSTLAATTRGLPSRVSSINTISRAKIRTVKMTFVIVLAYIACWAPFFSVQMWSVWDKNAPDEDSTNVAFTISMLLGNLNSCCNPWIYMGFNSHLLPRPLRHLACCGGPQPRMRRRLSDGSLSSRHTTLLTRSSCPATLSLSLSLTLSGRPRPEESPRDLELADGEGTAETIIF
pKi: −log10 of the molar value.
Known pKi of a selection of compounds

Below: 2 compounds and their reported pKi.
compound	target_desc	value
CCOc1ccc(OC)cc1C1(N2CCCN(c3ccnc(C(C)C)c3)CC2)C(=O)N(S(=O)(=O)c2ccc(OC)cn2)c2ccc(C#N)cc21 (racemic) [Example 154]	human vasopressin V1b receptor (Homo sapiens)	> 8.00
CCOc1ncccc1C1(N2CCN(c3ccncc3)CC2)C(=O)N(S(=O)(=O)c2cccc3cccnc23)c2ccc(C#N)cc21 (racemic) [Example 5]	human vasopressin V1b receptor (Homo sapiens)	> 8.00

Q: Return the recorded pKi value; entry: CCOc1ccc(OC)cc1C1(N2CC3CN(c4ccncc4)CC3C2)C(=O)N(S(=O)(=O)c2ccc(OC)c3cccnc23)c2ccc(C#N)cc21 (racemic) [Example 74]
A: 7.30 to 8.00

----------
# target_desc: human vasopressin V1b receptor (Homo sapiens, UniProt P47901)
# Construct: expressed in transfected cells; host or cells: CHO-K1 (cell line hV1b-3H2_CHO), membrane preparation
# test_details: Vasopressin V1b receptor binding assay
# settings: membranes from CHO-K1 cells with stably expressed human V1b receptors, 1.5 nM 3H-AVP displacement; with more than one stereogenic center: the diastereomer with stronger affinity
pKi: −log10 of the molar value.
property: pKi

compound	value
CCOc1ccccc1C1(N2CCN(c3ccncc3)CC2)C(=O)N(S(=O)(=O)c2ccc(OCC)c3cccnc23)c2ccc(C#N)cc21 (single isomer, unassigned; (+))	7.30 to 8.00

Q: Return the recorded pKi value; entry: COc1ccc(CN(C)C)cc1C1(N2CCN(c3ccncc3)CC2)C(=O)N(S(=O)(=O)c2cccc3cccnc23)c2ccc(Cl)cc21 (racemic)
A: 7.30 to 8.00

Q: Return the recorded pKi value; entry: Cc1cccnc1C1(N2CCN(c3ccncc3)CC2)C(=O)N(S(=O)(=O)c2cccc3cccnc23)c2ccc(Cl)cc21 (racemic)
A: 7.30 to 8.00

Q: Return the recorded pKi value; entry: CCOc1ccc(OC)cc1C1(N2CCCN(c3ccnc(C)c3)CC2)C(=O)N(S(=O)(=O)c2cccc3cccnc23)c2ccc(C#N)cc21 (racemic)
A: > 8.00

Q: Return the recorded pKi value; entry: CCOc1nc(Cl)ccc1C1(N2CCN(c3ccnc(C)c3)CC2)C(=O)N(S(=O)(=O)c2ccc(OC)cn2)c2ccc(C#N)cc21 (racemic) [Example 34]
A: > 8.00

Q: Return the recorded pKi value; entry: CCOc1ccc(OC)cc1C1(N2CCC(N3CCNCC3)CC2)C(=O)N(S(=O)(=O)c2ccc(OC)cn2)c2ccc(C#N)cc21 (single isomer, unassigned; (+))
A: 7.30 to 8.00

Q: Return the recorded pKi value; entry: CCOc1cc(F)ccc1C1(N2CCN(c3ccnc(C(C)C)c3)CC2)C(=O)N(S(=O)(=O)c2ccc(OC)cn2)c2ccc(C#N)cc21 (racemic)
A: > 8.00

Q: Return the recorded pKi value; entry: CCOc1ccc(OC)cc1C1(N2CCN(c3ccncc3)CC2)C(=O)N(S(=O)(=O)c2ccc(OC)cn2)c2ccc(C#N)cc21 (single isomer, unassigned; (+))
A: > 8.00

Q: Return the recorded pKi value; entry: CCOc1nc(Cl)ccc1C1(N2CCN(c3ccnc(C)c3)CC2)C(=O)N(S(=O)(=O)c2ccc(OC)cn2)c2ccc(C#N)cc21 (single isomer, unassigned; (+)) [Example 151]
A: > 8.00

Q: Return the recorded pKi value; entry: CCOc1ccc(OC)cc1C1(N2CCN(c3ccnc(C)c3)CC2)C(=O)N(S(=O)(=O)c2ccc(Cl)c3cccnc23)c2ccc(C#N)cc21 (racemic)
A: 7.30 to 8.00

Q: Return the recorded pKi value; entry: CCOc1ccccc1C1(N2CCN(c3ccncc3)CC2)C(=O)N(S(=O)(=O)c2cccc3cccnc23)c2ccc(C#N)cc21 (single isomer, unassigned; (+))
A: > 8.00

----------
# target_desc: human vasopressin V1b receptor (Homo sapiens, UniProt P47901)
# Construct: expressed in transfected cells; host or cells: CHO-K1 (cell line hV1b-3H2_CHO), membrane preparation
# test_details: Vasopressin V1b receptor binding assay
# settings: membranes from CHO-K1 cells with stably expressed human V1b receptors, 1.5 nM 3H-AVP displacement; with more than one stereogenic center: the diastereomer with stronger affinity
property: Ki

Below: 2 molecules and their reported Ki.
molecule	target_desc	Ki
CCOc1cc(OC)ccc1C1(N2CCN(c3ccnc(C(C)C)c3)CC2)C(=O)N(S(=O)(=O)c2ccc(OC)cn2)c2ccc(C#N)cc21 (racemic)	human vasopressin V1b receptor (Homo sapiens, UniProt P47901)	< 10 nM
CCOc1c(OC)cccc1C1(N2CCN(c3ccnc(C(C)C)c3)CC2)C(=O)N(S(=O)(=O)c2ccc(OC)cn2)c2ccc(C#N)cc21 (racemic)	human vasopressin V1b receptor (Homo sapiens, UniProt P47901)	< 10 nM

Q: Return the recorded Ki value; entry: CCOc1cc(F)ccc1C1(N2CCN(c3ccncc3)CC2)C(=O)N(S(=O)(=O)c2cccc3cccnc23)c2ccc(C#N)cc21 (racemic)
A: 10 to 50 nM

Q: Return the recorded Ki value; entry: CCOc1ccc(OC)cc1C1(N2CCN(c3ccnc(C)c3)CC2)C(=O)N(S(=O)(=O)c2ccc(OC)cn2)c2ccc(C#N)cc21 (racemic) [Example 35]
A: < 10 nM

Q: Return the recorded Ki value; entry: CCOc1nc(Cl)ccc1C1(N2CC3CN(c4ccnc(C)c4)CC3C2)C(=O)N(S(=O)(=O)c2ccc(OC)cn2)c2ccc(C#N)cc21 (racemic)
A: < 10 nM

Q: Return the recorded Ki value; entry: COc1ccc(OC)c(C2(N3CCN(c4ccncc4)CC3)C(=O)N(S(=O)(=O)c3cccc4c(C)ccnc34)c3ccc(C#N)cc32)c1 (racemic)
A: 10 to 50 nM
